system.tested: rat 17α-hydroxylase (Rattus norvegicus, UniProt P11715)
Sequence (P11715 whole entry): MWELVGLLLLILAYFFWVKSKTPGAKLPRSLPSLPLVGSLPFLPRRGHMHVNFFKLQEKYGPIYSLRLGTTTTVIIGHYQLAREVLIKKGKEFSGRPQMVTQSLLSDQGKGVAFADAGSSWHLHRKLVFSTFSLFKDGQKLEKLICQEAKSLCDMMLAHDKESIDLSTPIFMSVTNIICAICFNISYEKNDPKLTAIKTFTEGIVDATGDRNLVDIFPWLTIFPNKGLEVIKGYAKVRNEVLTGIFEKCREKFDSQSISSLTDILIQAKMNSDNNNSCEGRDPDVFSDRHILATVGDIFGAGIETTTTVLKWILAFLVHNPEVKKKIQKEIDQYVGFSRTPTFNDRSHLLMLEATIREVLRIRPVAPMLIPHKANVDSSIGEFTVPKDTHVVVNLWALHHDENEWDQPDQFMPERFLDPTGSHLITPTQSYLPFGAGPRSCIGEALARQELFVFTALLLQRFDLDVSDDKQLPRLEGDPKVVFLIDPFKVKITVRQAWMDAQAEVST
pKi: −log10 of the molar value.
readout.kind: pKi

{"compound": "C[C@H](C=NO)[C@H]1CC[C@H]2[C@@H]3CCC4=CC(=O)CC[C@]4(C)[C@H]3CC[C@]12C [Compound I-23]", "readout.kind": "pKi", "numeric.value": 7.13}

====

system.tested: Human Prostatic 5α-Reductase (Homo sapiens, UniProt P31213)
Sequence (P31213 1-254): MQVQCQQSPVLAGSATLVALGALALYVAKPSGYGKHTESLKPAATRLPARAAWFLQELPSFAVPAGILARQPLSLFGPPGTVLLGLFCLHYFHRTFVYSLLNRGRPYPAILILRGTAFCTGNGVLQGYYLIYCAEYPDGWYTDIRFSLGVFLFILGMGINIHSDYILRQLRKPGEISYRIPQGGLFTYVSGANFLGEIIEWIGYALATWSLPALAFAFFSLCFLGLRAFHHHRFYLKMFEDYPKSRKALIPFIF
assay.name: Inhibition of human prostatic 5α-reductase (prostatic microsomes, [3H]testosterone)
condition.details: read-out: % Inhibition of 5α-reductase, [I] 100 nM
Label rule met when inhibition at 0.1 µM is at or above 70%; otherwise label rule not met.

{"molecule": "CC(=NO)C1=CC[C@H]2[C@@H]3CCC4=CC(=O)CC[C@]4(C)[C@H]3CC[C@]12C [Compound L-2, 16-dehydroprogesterone-20-oxime]", "class.label": "rule not met"}
{"molecule": "C[C@]12CC[C@H]3[C@@H](CC[C@]45CC(=O)CC[C@]34[C@H]5O)[C@@H]1CC[C@@H]2O", "class.label": "rule not met"}
{"molecule": "C[C@H](C=NN(C)C)[C@H]1CC[C@H]2[C@@H]3CCC4=CC(=O)CC[C@]4(C)[C@H]3CC[C@]12C", "class.label": "rule met"}
{"molecule": "C[C@]12CC[C@H]3[C@@H](CC=C4C[C@@H](O)CC[C@@]43C)[C@@H]1CC[C@@H]2[C@@]1(C)CO1", "class.label": "rule not met"}
{"molecule": "CO[C@@H]1[C@]23CC[C@@H]4[C@H](CC[C@]5(C)C(=O)CC[C@@H]45)[C@]12CCC(=O)[C@H]3C", "class.label": "rule not met"}
{"molecule": "CC(=O)[C@@]12O[C@@H]1C[C@H]1[C@@H]3CCC4=CC(=O)CC[C@]4(C)[C@H]3CC[C@@]12C", "class.label": "rule met"}
{"molecule": "C=C1CC2C3CCC(OC(C)=O)C3(C)CCC2C2(C)CCC(=O)CC12 (stereo not shown)", "class.label": "rule not met"}
{"molecule": "C[C@@H](O)[C@H]1CC[C@H]2[C@@H]3CCC4=CC(=O)CC[C@]4(C)[C@H]3CC[C@]12C", "class.label": "rule not met"}
{"molecule": "C[C@]12CC[C@H]3[C@@H](CCC4=CC(=O)CC[C@@]43CBr)[C@@H]1CCC2=O", "class.label": "rule not met"}
{"molecule": "C[C@@H](O)C1=CC[C@H]2[C@@H]3CCC4=CC(=O)CC[C@]4(C)[C@H]3CC[C@]12C [Compound L-10, 20β-hydroxy-pregna-4,16-dien-3-one]", "class.label": "rule met"}
{"molecule": "CC(C)(C)NC(=O)[C@H]1CC[C@H]2[C@@H]3CC[C@H]4NC(=O)C=C[C@]4(C)[C@H]3CC[C@]12C [Finasteride, reference compound]", "class.label": "rule met"}
{"molecule": "C[C@]12CC[C@H]3[C@@H](CC=C4C[C@@H](O)CC[C@@]43C)[C@@H]1CC[C@@H]2[C@]1(C)CO1", "class.label": "rule not met"}
{"molecule": "C[C@H](C=O)[C@H]1CC[C@H]2[C@@H]3CCC4=CC(=O)CC[C@]4(C)[C@H]3CC[C@]12C", "class.label": "rule met"}
{"molecule": "C[C@]12CC[C@H]3[C@@H](CC[C@]45CC(=O)CC[C@]34[C@@H]5O)[C@@H]1CCC2=O", "class.label": "rule not met"}
{"molecule": "C[C@H](C#N)[C@H]1CC[C@H]2[C@@H]3CCC4=CC(=O)CC[C@]4(C)[C@H]3CC[C@]12C", "class.label": "rule met"}
{"molecule": "C[C@]12CC[C@H](O)CC1=CC[C@@H]1[C@@H]2CC[C@]2(C)C(c3c[nH]cn3)=CC[C@@H]12", "class.label": "rule not met"}
{"molecule": "CC(=NO)C1=CC[C@H]2[C@@H]3CC=C4C[C@@H](O)CC[C@]4(C)[C@H]3CC[C@]12C [Compound I-5, 16-dehydropregnenolone-20-oxime]", "class.label": "rule not met"}
{"molecule": "CC(=O)C1=CC[C@H]2[C@@H]3CCC4=CC(=O)CC[C@]4(C)[C@H]3CC[C@]12C [Compound L-13, 16-dehydroprogesterone]", "class.label": "rule met"}
{"molecule": "C[C@H](C=NO)[C@H]1CC[C@H]2[C@@H]3CCC4=CC(=O)CC[C@]4(C)[C@H]3CC[C@]12C", "class.label": "rule met"}
{"molecule": "C[C@]12CC[C@H]3[C@@H](CCC4=CC(=O)CC[C@@]43C)[C@@H]1CC[C@@H]2c1ncc[nH]1", "class.label": "rule not met"}
{"molecule": "C[C@]12CCC(=O)C=C1CC[C@@H]1[C@@H]2CC[C@]2(C)C(c3c[nH]cn3)=CC[C@@H]12", "class.label": "rule not met"}
{"molecule": "C[C@H](O)[C@H]1CC[C@H]2[C@@H]3CCC4=CC(=O)CC[C@]4(C)[C@H]3CC[C@]12C", "class.label": "rule met"}
{"molecule": "CCN(CC)C(=O)[C@H]1CC[C@H]2[C@@H]3CC[C@H]4N(C)C(=O)CC[C@]4(C)[C@H]3CC[C@]12C [Compound 4MA, reference compound]", "class.label": "rule met"}
{"molecule": "C[C@]12CC[C@H]3[C@@H](CC[C@]45CC(=O)C=C[C@]34C5)[C@@H]1CCC2=O", "class.label": "rule not met"}
